# experimental.system: Cholinesterase (Equus caballus, UniProt P81908)
# Sequence (P81908 whole entry): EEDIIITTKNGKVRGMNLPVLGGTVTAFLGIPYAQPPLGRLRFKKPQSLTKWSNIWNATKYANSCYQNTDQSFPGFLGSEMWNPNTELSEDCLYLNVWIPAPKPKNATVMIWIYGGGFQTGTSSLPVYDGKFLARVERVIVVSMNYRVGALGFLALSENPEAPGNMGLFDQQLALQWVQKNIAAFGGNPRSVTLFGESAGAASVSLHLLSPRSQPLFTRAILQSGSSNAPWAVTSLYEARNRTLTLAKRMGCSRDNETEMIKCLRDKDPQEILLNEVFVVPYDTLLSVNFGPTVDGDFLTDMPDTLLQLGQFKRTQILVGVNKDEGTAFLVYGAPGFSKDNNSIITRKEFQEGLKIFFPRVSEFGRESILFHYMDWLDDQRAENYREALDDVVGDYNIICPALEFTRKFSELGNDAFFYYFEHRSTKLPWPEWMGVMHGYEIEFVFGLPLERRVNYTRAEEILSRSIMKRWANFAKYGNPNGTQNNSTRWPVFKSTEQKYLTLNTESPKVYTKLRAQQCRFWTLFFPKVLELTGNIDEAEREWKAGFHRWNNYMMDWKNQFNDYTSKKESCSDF
# procedure.text: Inhibition of equine serum BCHE using butyrylthiocholine iodide as substrate preincubated for 20 mins followed by substrate addition measured for 5 mins by spectrophotometry based Ellman method
outcome.measure: log10(IC50) (log10 of the value in nM)
A difference of one corresponds to tenfold IC50; all values are log10 with IC50 in nM.

                                   compound  outcome_measure  data_value
0  O=C(CC1c2ccccc2N=C(N2CCN(CCN3CCCC3)CC2)N1c1ccc(C2CCCCC2)cc1)NCc1ccc(F)cc1 (stereo unspecified)      log10(IC50)        3.33
1  CN(C)CCN1CCN(C2=Nc3ccccc3C(CC(=O)NCc3ccc(F)cc3)N2c2ccc(-c3ccccc3)cc2)CC1 (stereo unspecified)      log10(IC50)        3.41
2  CN(C)CCCCCN(C)C1=Nc2c(F)cc(F)cc2C(CC(=O)NCc2ccccc2)N1c1ccc(-c2ccccc2)cc1 (stereo unspecified)      log10(IC50)        2.58
3  CN(CCCCCN1CCCC1)C1=Nc2ccccc2C(CC(=O)NCc2ccccc2)N1c1ccc(-c2ccccc2)cc1 (stereo unspecified)      log10(IC50)        1.65

Then there is this compound:
So what does the record say about log10(IC50) for O=C(CC1c2cccc(F)c2N=C(N2CCN(CCN3CCCC3)CC2)N1c1ccc(C2CCCCC2)cc1)NCc1ccc(F)cc1 (stereo unspecified) ?
3.31

====

Quick reference for pIC50 among some compounds
# experimental.system: Cholinesterase (Equus caballus)
# procedure.text: Inhibition of equine serum BCHE using butyrylthiocholine iodide as substrate preincubated for 20 mins followed by substrate addition measured for 5 mins by spectrophotometry based Ellman method
Please note pIC50 is a logarithmic value: minus log10 of concentration in mol/L. Answer with that number alone.

                                   compound  outcome_measure  data_value
0  CN(C)CCCCCN(C)C1=Nc2ccccc2C(CC(=O)NCc2ccccc2)N1c1ccc(-c2ccccc2)cc1 (stereo not drawn)            pIC50        7.21
1  COC(=O)CC1c2ccccc2N=C(N(C)CCCCCN)N1c1ccc(-c2ccccc2)cc1 (stereo not drawn)            pIC50        6.85
2  CN(CCCCCN)C1=Nc2ccccc2C(CC(=O)NCc2ccccc2)N1c1ccc(-c2ccccc2)cc1 (stereo not drawn)            pIC50        5.28
3  O=C(CC1c2ccccc2N=C(N2CCN(CCN3CCCC3)CC2)N1c1ccc(-c2ccccc2)cc1)NCc1ccc(F)cc1 (stereo not drawn)            pIC50        5.83
4  CN(C)CCCCCN(C)C1=Nc2ccccc2C(CC(=O)NCc2ccc(F)cc2)N1c1ccc(-c2ccc(F)cc2)cc1 (stereo not drawn)            pIC50        6.62
5  CN(C)CCCCCN(C)C1=Nc2ccccc2C(CC(=O)NCc2ccc(F)cc2)N1c1ccc(C2CCCCC2)cc1 (stereo not drawn)            pIC50        6.40

Then there is this compound:
Lab request: please report pIC50 under test system Cholinesterase (Equus caballus) for COc1ccc(CNC(=O)CC2c3ccccc3N=C(N3CCN(CCN(C)C)CC3)N2c2ccc(-c3ccccc3)cc2)cc1 (stereo not drawn)
5.21
